- System: K562
- Assay summary: Growth inhibition of human K562 cells assessed as cell growth at 10^-8 M by sulforhodamine B assay
- Format: functional
- Experimental context: read-out: Activity

- Smiles structure: "CC1(C)C[C@@H](O)[C@]2(C(=O)O)CC[C@]3(C)C(=CC[C@@H]4[C@@]5(C)C/C(=C\\C=C\\c6ccccc6)C(=O)C(C)(C)[C@@H]5CC[C@]43C)[C@@H]2C1"
  Test system: "K562"
  growth at 0.01 µM [%]: 114
- Smiles structure: "CC(C)=CC(=O)O[C@@H]1CC(C)(C)C[C@H]2C3=CC[C@@H]4[C@@]5(C)CC[C@H](O)C(C)(C)[C@@H]5CC[C@@]4(C)[C@]3(C)CC[C@@]12C(=O)O"
  Test system: "K562"
  growth at 0.01 µM [%]: 114
- Smiles structure: "C/C=C(/C)C(=O)O[C@@H]1CC(C)(C)C[C@H]2C3=CC[C@@H]4[C@@]5(C)CCC(=O)C(C)(C)[C@@H]5CC[C@@]4(C)[C@]3(C)CC[C@@]12C(=O)O"
  Test system: "K562"
  growth at 0.01 µM [%]: 110
- Smiles structure: "CC(C)=CC(=O)O[C@@H]1CC(C)(C)C[C@H]2C3=CC[C@@H]4[C@@]5(C)CCC(=O)C(C)(C)[C@@H]5CC[C@@]4(C)[C@]3(C)CC[C@@]12C(=O)O"
  Test system: "K562"
  growth at 0.01 µM [%]: 116
- Smiles structure: "C/C=C(/C)C(=O)O[C@@H]1CC(C)(C)C[C@H]2C3=CC[C@@H]4[C@@]5(C)CC[C@H](O)C(C)(C)[C@@H]5CC[C@@]4(C)[C@]3(C)CC[C@@]12C(=O)O"
  Test system: "K562"
  growth at 0.01 µM [%]: 107

---

- System: OVCAR-4
- Assay summary: Growth inhibition of human OVCAR4 cells assessed as growth inhibition at 10 uM by sulforhodamine B assay
- Type: functional
- Experimental context: read-out: GI
Binary call on inhibition of growth at 10 µM: true (1) from 30% upward, false (0) beneath that.

- Smiles structure: "C/C=C(/C)C(=O)O[C@@H]1CC(C)(C)C[C@H]2C3=CC[C@@H]4[C@@]5(C)CC[C@H](O)C(C)(C)[C@@H]5CC[C@@]4(C)[C@]3(C)CC[C@@]12C(=O)O"
  Group: "true (1)"
- Smiles structure: "CC1(C)C[C@@H](O)[C@]2(C(=O)O)CC[C@]3(C)C(=CC[C@@H]4[C@@]5(C)CC[C@H](O)C(C)(C)[C@@H]5CC[C@]43C)[C@@H]2C1"
  Group: "false (0)"
- Smiles structure: "CC1(C)C[C@@H](O)[C@]2(C(=O)O)CC[C@]3(C)C(=CC[C@@H]4[C@@]5(C)CCC(=O)C(C)(C)[C@@H]5CC[C@]43C)[C@@H]2C1"
  Group: "false (0)"
- Smiles structure: "CC(C)=CC(=O)O[C@@H]1CC(C)(C)C[C@H]2C3=CC[C@@H]4[C@@]5(C)CCC(=O)C(C)(C)[C@@H]5CC[C@@]4(C)[C@]3(C)CC[C@@]12C(=O)O"
  Group: "false (0)"
- Smiles structure: "C/C=C(/C)C(=O)O[C@@H]1CC(C)(C)C[C@H]2C3=CC[C@@H]4[C@@]5(C)CCC(=O)C(C)(C)[C@@H]5CC[C@@]4(C)[C@]3(C)CC[C@@]12C(=O)O"
  Group: "false (0)"
- Smiles structure: "CC1(C)C[C@@H](O)[C@]2(C(=O)O)CC[C@]3(C)C(=CC[C@@H]4[C@@]5(C)C/C(=C\\C=C\\c6ccccc6)C(=O)C(C)(C)[C@@H]5CC[C@]43C)[C@@H]2C1"
  Group: "true (1)"
- Smiles structure: "COc1cc(/C=C2\\C[C@]3(C)[C@H]4CC=C5[C@@H]6CC(C)(C)C[C@@H](O)[C@]6(C(=O)O)CC[C@@]5(C)[C@]4(C)CC[C@H]3C(C)(C)C2=O)ccc1O"
  Group: "false (0)"
